FYI, the data here is from patent US12668600B2.

target: KRAS G12V (Homo sapiens, UniProt P01116, G12V); assay: HTRF KRAS-SOS1 interaction assay, KRAS G12V; conditions: binned ≤2 μM / >2 μM, read-out: Inhibition of KRAS G12V (IC50)
Sequence (P01116 1-188 isoform P01116-2 G12V): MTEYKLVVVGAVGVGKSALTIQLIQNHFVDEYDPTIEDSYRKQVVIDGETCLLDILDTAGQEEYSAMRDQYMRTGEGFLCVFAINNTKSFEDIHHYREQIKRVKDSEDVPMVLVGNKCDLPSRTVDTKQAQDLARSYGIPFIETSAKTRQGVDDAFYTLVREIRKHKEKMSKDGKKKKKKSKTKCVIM
pIC50: −log10 of the molar value.
RECORDED METRIC: pIC50

*Q* State the recorded pIC50 for this entry: C[C@H](c1cccnc1N)N1CCOc2nc(-c3ccc(F)c4sc(N)c(C#N)c34)c(F)c3nc(OC[C@@]45CCCN4C[C@H](F)C5)nc1c23 (single isomer, unassigned)
*A* ≥ 5.70

*Q* State the recorded pIC50 for this entry: "C[C@H](c1cc(F)cnc1N)N1CCOc2c(C(F)(F)F)c(-c3ccc(F)c4sc(N)c(C#N)c34)c(F)c3nc(OC[C@@]45CCCN4C[C@@]4(CC4(F)F)C5)nc1c23"
*A* ≥ 5.70

*Q* State the recorded pIC50 for this entry: C[C@@H]1COCCN1CC1(COc2nc3c4c(c(C(F)(F)F)c(-c5ccc(F)c6sc(N)c(C#N)c56)c(F)c4n2)OCCN3[C@H](C)c2cccnc2N)CC1 (single isomer, unassigned) [Compound 608]
*A* ≥ 5.70

*Q* State the recorded pIC50 for this entry: "C[C@H](c1cccnc1C(F)F)N1CCOc2c(C(F)(F)F)c(-c3ccc(F)c4sc(N)c(C#N)c34)c(F)c3nc(OC[C@@]45CCCN4C[C@H](F)C5)nc1c23"
*A* ≥ 5.70

*Q* State the recorded pIC50 for this entry: C[C@H](Oc1nc2c3c(c(Cl)c(-c4ccc(F)c5sc(N)c(C#N)c45)c(F)c3n1)OCCN2[C@H](C)c1cccnc1N)[C@@H]1CCCN1C (single isomer, unassigned) [Compound 633]
*A* ≥ 5.70

* * *

target: KRAS G12S (Homo sapiens, UniProt P01116, G12S); assay: HTRF KRAS-SOS1 interaction assay, KRAS G12S; settings: binned ≤2 μM / >2 μM, read-out: Inhibition of KRAS G12S (IC50)
Sequence (P01116 1-188 isoform P01116-2 G12S): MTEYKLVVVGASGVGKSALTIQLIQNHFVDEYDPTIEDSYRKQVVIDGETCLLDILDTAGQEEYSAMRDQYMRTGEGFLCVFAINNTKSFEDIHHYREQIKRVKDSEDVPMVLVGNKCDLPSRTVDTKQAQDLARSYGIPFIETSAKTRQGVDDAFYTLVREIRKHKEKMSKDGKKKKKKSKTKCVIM
Please respond with reported IC50 for every item in the list.

*Q* State the recorded IC50 for this entry: CN(C)CCC[C@H](c1cccnc1N)N1CCOc2c(C(F)(F)F)c(-c3ccc(F)c4sc(N)c(C#N)c34)c(F)c3nc(OC[C@@]45CCCN4C[C@H](F)C5)nc1c23 (single isomer, unassigned)
*A* ≤ 2000 nM

*Q* State the recorded IC50 for this entry: C[C@H](c1cc(Cl)cnc1N)N1CCOc2c(C(F)(F)F)c(-c3ccc(F)c4sc(N)c(C#N)c34)c(F)c3nc(OC[C@@]45CCCN4C[C@H](F)C5)nc1c23 (single isomer, unassigned) [Compound 702]
*A* > 2000 nM

*Q* State the recorded IC50 for this entry: C[C@H](c1cccnc1N)N1CCOc2c(Cl)c(-c3ccc(F)c4sc(N)c(C#N)c34)c(F)c3nc(OCC45CCCC4CCC5)nc1c23 (single isomer, unassigned) [Compound 914]
*A* ≤ 2000 nM

*Q* State the recorded IC50 for this entry: "CCN1CC[C@H](OC)[C@H]1[C@H](C)Oc1nc2c3c(c(C(F)(F)F)c(-c4ccc(F)c5sc(N)c(C#N)c45)c(F)c3n1)OCCN2[C@H](C)c1cccnc1N"
*A* ≤ 2000 nM

*Q* State the recorded IC50 for this entry: "C[C@H](c1cncnc1N)N1CCOc2c(C(F)(F)F)c(-c3ccc(F)c4sc(N)c(C#N)c34)c(F)c3nc(OCC4(CN5CCC(F)CC5)CC4)nc1c23"
*A* ≤ 2000 nM

* * *

target: KRAS G12D (Homo sapiens, UniProt P01116, G12D); test: HTRF KRAS-SOS1 interaction assay, KRAS G12D; conditions: binned ≤2 μM / >2 μM, read-out: Inhibition of KRAS G12D (IC50)
Sequence (P01116 1-188 isoform P01116-2 G12D): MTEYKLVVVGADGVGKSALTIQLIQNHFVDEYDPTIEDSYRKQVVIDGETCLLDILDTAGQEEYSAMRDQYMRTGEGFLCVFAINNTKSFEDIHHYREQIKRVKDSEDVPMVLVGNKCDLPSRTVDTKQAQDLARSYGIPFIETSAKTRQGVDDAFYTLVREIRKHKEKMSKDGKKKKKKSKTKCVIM
RECORDED METRIC: IC50

*Q* State the recorded IC50 for this entry: C[C@H](c1cccnc1N)N1CCOc2c(C(F)(F)F)c(-c3ccc(F)c4sc(N)c(C#N)c34)c(F)c3nc(OC[C@@]45CCCN4CC(C#N)C5)nc1c23 (some centres unmarked) [Compound 852]
*A* > 2000 nM

*Q* State the recorded IC50 for this entry: N#Cc1c(N)sc2c(F)ccc(-c3c(C(F)(F)F)c4c5c(nc(OC[C@@]67CCCN6C[C@H](F)C7)nc5c3F)N([C@H](CCC3CC3)c3cccnc3N)CCO4)c12 (single isomer, unassigned) [Compound 606]
*A* > 2000 nM

*Q* State the recorded IC50 for this entry: N#Cc1c(N)sc2c(F)ccc(-c3c(C(F)(F)F)c4c5c(nc(OC[C@@]67CCCN6[C@H](COc6cnc(C(F)(F)F)cn6)CC7)nc5c3F)N([C@@H](c3cccnc3N)C(F)F)CCO4)c12 (single isomer, unassigned)
*A* ≤ 2000 nM

*Q* State the recorded IC50 for this entry: C[C@H](c1cccnc1N)N1CCOc2c(C(F)(F)F)c(-c3cc(F)c(F)c4sc(N)c(C#N)c34)c(F)c3nc(OC[C@@]45CCCN4C[C@H](F)C5)nc1c23 (single isomer, unassigned) [Compound 863]
*A* > 2000 nM

*Q* State the recorded IC50 for this entry: C[C@H](Oc1nc2c3c(c(Cl)c(-c4ccc(F)c5sc(N)c(C#N)c45)c(F)c3n1)OCCN2[C@H](C)c1cccnc1N)[C@@H]1CCCN1C (mixture of isomers) [Compound 803]
*A* ≤ 2000 nM

* * *

target: KRAS G12S (Homo sapiens, UniProt P01116, G12S); test: HTRF KRAS-SOS1 interaction assay, KRAS G12S; conditions: binned ≤2 μM / >2 μM, read-out: Inhibition of KRAS G12S (IC50)
RECORDED METRIC: IC50

*Q* State the recorded IC50 for this entry: C[C@H]1CN([C@@H](c2cccnc2N)C(F)F)c2nc(OC[C@@]34CCCN3C[C@H](F)C4)nc3c(F)c(-c4ccc(F)c5sc(N)c(C#N)c45)c(C(F)(F)F)c(c23)O1 (single isomer, unassigned) [Compound 879]
*A* ≤ 2 µM

*Q* State the recorded IC50 for this entry: CCN(CC)CCC[C@H](c1cccnc1N)N1CCOc2c(C(F)(F)F)c(-c3ccc(F)c4sc(NC)c(C#N)c34)c(F)c3nc(OC[C@@]45CCCN4C[C@H](F)C5)nc1c23 (single isomer, unassigned) [Compound 832]
*A* ≤ 2 µM

*Q* State the recorded IC50 for this entry: N#Cc1c(N)sc2cccc(-c3c(Cl)c4c5c(nc(OC[C@@]67CCCN6C[C@H](F)C7)nc5c3F)N([C@@H](c3cccnc3N)C(F)F)CCO4)c12 (single isomer, unassigned) [Compound 672]
*A* ≤ 2 µM

*Q* State the recorded IC50 for this entry: C[C@@H]1CN(CC2(COc3nc4c5c(c(C(F)(F)F)c(-c6ccc(F)c7sc(N)c(C#N)c67)c(F)c5n3)OCCN4[C@H](C)c3cccnc3N)CC2)C[C@H](C)O1 [Compound 710]
*A* ≤ 2 µM

*Q* State the recorded IC50 for this entry: N#Cc1c(N)sc2c(F)ccc(-c3c(Cl)c4c5c(nc(OC[C@@]67CCCN6C[C@H](F)C7)nc5c3F)N([C@@H](c3cccnc3N)C(F)(F)F)CCO4)c12 [Compound 833]
*A* ≤ 2 µM

* * *

biological target: KRAS G12D (Homo sapiens, UniProt P01116, G12D); experiment: HTRF KRAS-SOS1 interaction assay, KRAS G12D; details: binned ≤2 μM / >2 μM, read-out: Inhibition of KRAS G12D (IC50)
RECORDED METRIC: IC50

*Q* State the recorded IC50 for this entry: C[C@H](c1cccnc1N)N1CCOc2c(C(F)(F)F)c(-c3ccc(F)c4sc(N)c(C#N)c34)c(F)c3nc(OC[C@@]45CCCN4CC(=C(F)F)C5)nc1c23 [Compound 856]
*A* ≤ 2000 nM

*Q* State the recorded IC50 for this entry: CC[S+]([O-])[C@@H]1CN2CCC[C@@]2(COc2nc3c4c(c(Cl)c(-c5ccc(F)c6sc(N)c(C#N)c56)c(F)c4n2)OCCN3[C@H](C)c2cccnc2N)C1 (mixture of isomers) [Compound 780]
*A* ≤ 2000 nM

*Q* State the recorded IC50 for this entry: C[C@H](c1cccnc1N)N1C[C@H](C)Oc2c(C(F)(F)F)c(-c3ccc(F)c4sc(N)c(C#N)c34)c(F)c3nc(OC[C@@]45CCCN4C[C@H](F)C5)nc1c23 (single isomer, unassigned) [Compound 697]
*A* ≤ 2000 nM

*Q* State the recorded IC50 for this entry: C=C(F)[C@H](c1cccnc1N)N1CCOc2c(Cl)c(-c3ccc(F)c4sc(N)c(C#N)c34)c(F)c3nc(OC[C@@]45CCCN4C[C@H](F)C5)nc1c23 [Compound 694]
*A* ≤ 2000 nM

*Q* State the recorded IC50 for this entry: N#Cc1c(N)sc2c(F)ccc(-c3c(C(F)(F)F)c4c5c(nc(OC[C@@]67CCCN6C[C@@]6(CC6(F)F)C7)nc5c3F)N([C@@H](c3cccnc3N)C(F)F)CCO4)c12 (single isomer, unassigned) [Compound 897]
*A* > 2000 nM
